Attribution: paper PMC5540273

Tested on: TNIK
Condition Label: concentration: 1 μM, replicates: in singlicate; n = 1;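 also: KINOMEscan kinase panel screen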

# Chemical String, Test Target, %Inh (%)
rows = [
    ("COc1cccc(C2=C(N(C)c3ccccc3)C(=O)NC2=O)c1", "TNIK", 0),
    ("Nc1n[nH]c2ncc(-c3ccccc3)cc12", "TNIK", 1),
    ("CCS(=O)(=O)c1ccc(OC)c(Nc2ncc(-c3ccc(F)cc3)o2)c1.Cl", "TNIK", 0),
    ("CCCNC(=O)Nc1ccc(Oc2ncnc3ccn(C)c23)cc1", "TNIK", 18),
    ("CCC(=O)c1c(-c2ccccc2)c2cc(Cl)ccc2c(=O)n1Cc1cc(C(=O)NC2CC2)n(C)n1", "TNIK", 0),
    ("COc1ccc(-c2cc3c(C)nc(N)nc3n([C@H]3CC[C@H](O)CC3)c2=O)cn1", "TNIK", 0),
    ("CCc1nc(-c2cccc(C)c2)c(-c2ccncc2)s1", "TNIK", 59),
    ("Cc1cccc(-c2cc(-c3c[nH]nc3-c3ccccn3)ccn2)c1", "TNIK", 59),
    ("CCc1ccc(-c2ccc3c(c2)-c2nn(C)cc2S(=O)(=O)N3C)cc1", "TNIK", 38),
]

###

Tested on: AKT1
Condition Label: concentration: 1 μM, replicates: in singlicate; n = 1
Here the recorded %Inh is given for each entry.

# Molecule, Test Target, %Inh, %
data = [
    ("Cn1c(=O)c(F)c(Nc2ccc(I)cc2F)c2c(=O)n(OC[C@H](O)CO)cnc21", "AKT1", 15),
    ("COC(=O)c1c(-c2ccccc2)c2cc(Br)ccc2c(=O)n1Cc1ccc(NC(=O)CCC(=O)O)cc1", "AKT1", 12),
    ("CCn1c(-c2nonc2N)nc2ccccc21 [SB-693162/GW549034]", "AKT1", 0),
    ("Nc1nc(N)c2nc(-c3ccccc3)[nH]c2n1 [SKF-12778]", "AKT1", 15),
    ("COc1cc(Nc2nccc(N3CCC(NC(=O)C4COc5ccccc5O4)C3)n2)cc(OC)c1OC (stereo not shown) [GSK1379761]", "AKT1", 0),
    ("COc1cc(Nc2ccnc3ccc(C(F)(F)F)cc23)cc(OC)c1OC [GW577382]", "AKT1", 0),
    ("COc1cc2ncn(-c3cc(OCc4ccncc4Br)c(C(N)=O)s3)c2cc1OC [GW854278]", "AKT1", 0),
    ("Cc1ccc(Oc2ccc(Nc3ncnc4cc[nH]c34)cc2C)cn1", "AKT1", 17),
    ("O=C(Nc1n[nH]c2cc(-c3ccccc3F)ccc12)C1CC1 [SB-733371]", "AKT1", 0),
    ("COc1ccc(CNC(=O)NC2CCN(c3ccnc(Nc4ccc(F)cc4)n3)C2)cc1 (stereo not shown) [GSK1379706]", "AKT1", 0),
    ("Cc1cc(Nc2nc(-c3cccc(C)n3)nc3ccccc23)ccn1 [GW872411]", "AKT1", 0),
    ("O=C(Nc1n[nH]c2nc(-c3ccccc3)c(Cl)cc12)C1CC1 [SB-734909]", "AKT1", 0),
    ("O=C1NC(=O)C(c2ccccc2)=C1Nc1cccc(O)c1 [SB-390534]", "AKT1", 0),
    ("CN1C(=O)C(Nc2ccccc2)=C(c2ccccc2)C1=O [SB-300079]", "AKT1", 0),
    ("Nc1ncnc2c1ncn2-c1cccc2ccccc12 [SKF-97184]", "AKT1", 8),
    ("Cc1nnc(-c2ccc3ncn(-c4ccc(S(C)=O)cc4)c3c2)o1 (stereo not shown)", "AKT1", 0),
    ("COc1ccc(-c2coc3ccc(-c4nnc(SCc5cccc(C#N)c5)o4)cc23)cc1", "AKT1", 0),
    ("COc1cccc(C2=C(N(C)c3ccccc3)C(=O)NC2=O)c1 [SB-334865]", "AKT1", 0),
    ("COc1cc2nccc(Nc3cccc(Oc4ccccc4)c3)c2cc1OC.Cl [GW284543]", "AKT1", 0),
]

###

Tested on: FGFR3
Condition Label: concentration: 1 μM, replicates: in singlicate; n = 1
Label YES when %Inh is strictly below 3%; at or above that, label NO.

# Compound, Label Value
data = [
    ("O=C(Nc1n[nH]c2nc(-c3ccccc3)c(Br)cc12)C1CC1 [SB-708998]", "NO"),
    ("Cc1nnc(-c2ccc(C)c(-c3ccc(C(=O)O)cc3)c2)o1 [GW608005]", "YES"),
    ("CCC(=O)c1c(-c2ccccc2)c2cc(Cl)ccc2c(=O)n1Cc1cc(S(C)(=O)=O)n(CC(N)=O)n1", "YES"),
    ("COc1cccc(-n2cnc3c(N)ncnc32)c1 [SKF-97416]", "YES"),
    ("COc1cc2nccc(Nc3cccc(Oc4ccccc4)c3)c2cc1OC.Cl [GW284543]", "NO"),
    ("CN1C(=O)C(Nc2cc(Cl)c(O)c(Cl)c2)=C(c2ccc(Cl)cc2)C1=O [SB-404321]", "NO"),
    ("O=C(Nc1ccc2c(c1)OCO2)NC1CCN(c2ccnc(NCc3ccc(F)cc3)n2)CC1 [GSK1379859]", "YES"),
    ("CCC(=O)c1c(-c2ccccc2)c2cc(Cl)ccc2c(=O)n1Cc1cc(C(=O)NC2CC2)n(C)n1", "YES"),
]

###

Test system: MAP4K5
Condition Label: concentration: 1 μM, replicates: in singlicate; n = 1

# Compound, %Inh [%]
rows = [
    ("Cc1nnc(-c2ccc3ncn(-c4ccc(S(C)=O)cc4)c3c2)o1 (stereo not drawn)", 0),
    ("COc1cc2ncn(-c3cc(OCc4ccncc4Br)c(C(N)=O)s3)c2cc1OC", 20),
    ("FC(F)(F)c1ccc(-c2ncn(CCCN3CCOCC3)c2-c2ccncc2)cc1", 0),
    ("O=C(NCc1cccs1)c1cc(C(=O)c2c(Cl)cccc2Cl)c[nH]1", 3),
    ("COC(=O)c1c(-c2ccccc2)c2cc(Br)ccc2c(=O)n1Cc1ccc(NC(=O)CCC(=O)O)cc1", 0),
    ("COc1cc(Nc2ccnc3ccc(C(F)(F)F)cc23)cc(OC)c1OC", 4),
    ("O=C(Nc1ccc2c(c1)OCO2)NC1CCN(c2ccnc(NCc3ccc(F)cc3)n2)CC1", 0),
    ("COc1cccc(C2=C(Nc3cccc(C(=O)O)c3)C(=O)NC2=O)c1", 15),
    ("O=C1NC(=O)C(c2ccccc2)=C1Nc1cccc(O)c1", 0),
]

###

System: IRAK1
Condition Label: concentration: 1 μM, replicates: in singlicate; n = 1
Here the recorded %Inh is given for each entry.

# Molecule, %Inh (%)
rows = [
    ("COC(=O)c1c(-c2ccccc2)c2cc(C)ccc2c(=O)n1Cc1ccccc1", 21),
    ("COC(=O)c1c(-c2ccccc2)c2cc(Br)ccc2c(=O)n1Cc1ccc(NC(=O)CCC(=O)O)cc1", 8),
    ("Cc1nnc(-c2ccc3ncn(-c4ccc(S(C)=O)cc4)c3c2)o1 (stereo not drawn)", 0),
    ("COc1ccc(Nc2nccc(N3CCC(NS(=O)(=O)c4ccc(NC(C)=O)cc4)C3)n2)cc1 (stereo not drawn)", 0),
    ("COc1cc(OC)cc(-c2cc3cnc(N)nc3nc2NC(=O)NC(C)(C)C)c1", 0),
    ("Cc1ccccc1COc1cc(-n2cnc3cc(Cl)ccc32)sc1C(N)=O", 22),
    ("O=C1NC(=O)C(c2ccccc2)=C1Nc1cccc(O)c1", 0),
    ("Cc1nnc(-c2ccc(C)c(-c3ccc(C(=O)O)cc3)c2)o1", 0),
    ("Cl.c1ccc(Cn2cnc3cc(Nc4ncnc5ccccc45)ccc32)cc1", 26),
    ("CCC(=O)c1c(-c2ccccc2)c2cc(Cl)ccc2c(=O)n1Cc1cc(C(=O)NC2CC2)n(C)n1", 21),
    ("COc1cc2ncn(-c3cc(OCc4ccncc4)c(C(N)=O)s3)c2cc1OC", 8),
    ("COc1cc(Nc2nccc(N3CCC(NC(=O)C4COc5ccccc5O4)C3)n2)cc(OC)c1OC (stereo not drawn)", 61),
    ("COc1ccc(-n2cnc3c(N)ncnc32)cc1", 0),
    ("COc1ccc(-c2coc3ccc(-c4nnc(SCc5cccc(C#N)c5)o4)cc23)cc1", 0),
    ("COc1ccc(-c2cc3c(C)nc(N)nc3n([C@H]3CC[C@H](OCCO)CC3)c2=O)cn1", 4),
    ("O=C(NCc1cccs1)c1cc(C(=O)c2c(Cl)cccc2Cl)c[nH]1", 0),
    ("COc1cc(Nc2nccc(N3CCC(NC(=O)C(C)c4ccc(Cl)cc4)C3)n2)cc(OC)c1OC (stereo not drawn)", 41),
    ("Nc1nc(-c2ccccc2F)c(-c2ccnc3ccccc23)s1", 30),
]
